Source of measurements: paper PMC11079024

Molecular target: C. elegans (N2) complex I (NADH:ubiquinone oxidoreductase) (Caenorhabditis elegans, UniProt P24887+Q93873+Q94360)
Sequence (Q94360 17-199): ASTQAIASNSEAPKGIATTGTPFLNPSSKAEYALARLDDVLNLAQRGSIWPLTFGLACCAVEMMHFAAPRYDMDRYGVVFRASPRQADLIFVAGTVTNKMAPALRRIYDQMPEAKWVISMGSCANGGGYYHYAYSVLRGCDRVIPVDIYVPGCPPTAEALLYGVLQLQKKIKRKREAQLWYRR
Sequence (P24887 whole entry): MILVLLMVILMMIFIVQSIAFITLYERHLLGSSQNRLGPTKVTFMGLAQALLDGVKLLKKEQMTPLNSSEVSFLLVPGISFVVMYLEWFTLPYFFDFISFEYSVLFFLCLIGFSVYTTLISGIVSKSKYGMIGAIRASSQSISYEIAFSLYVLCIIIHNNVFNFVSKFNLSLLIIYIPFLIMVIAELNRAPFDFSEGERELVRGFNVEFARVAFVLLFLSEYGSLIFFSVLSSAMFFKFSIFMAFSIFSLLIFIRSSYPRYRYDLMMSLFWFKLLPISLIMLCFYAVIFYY
Sequence (Q93873 31-482): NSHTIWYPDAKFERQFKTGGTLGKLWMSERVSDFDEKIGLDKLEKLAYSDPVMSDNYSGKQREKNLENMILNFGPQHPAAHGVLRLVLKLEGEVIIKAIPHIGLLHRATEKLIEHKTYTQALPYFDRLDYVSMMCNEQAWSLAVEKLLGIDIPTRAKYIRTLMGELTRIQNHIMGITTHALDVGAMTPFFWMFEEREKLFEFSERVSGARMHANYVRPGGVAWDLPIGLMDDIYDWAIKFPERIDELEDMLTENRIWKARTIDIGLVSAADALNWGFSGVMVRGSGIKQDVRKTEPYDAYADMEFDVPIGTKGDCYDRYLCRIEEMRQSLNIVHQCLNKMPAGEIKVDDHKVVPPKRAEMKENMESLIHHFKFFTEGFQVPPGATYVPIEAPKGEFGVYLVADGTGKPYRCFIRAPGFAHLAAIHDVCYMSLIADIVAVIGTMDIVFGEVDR
Assay: biochemical
Type: biochemical
Settings: wild-type C. elegans mitochondria; estimated from fitted dose-response curves; read-out: C. elegans Complex I IC50
Exercise: for every item that follows, state its recorded pIC50.
// pIC50 is dimensionless: -log10 of concentration (M)

What measured pIC50 goes with `Cc1nc2ccccc2n1Cc1ccc(C(C)C)cc1` ?
6.37

Same read-out for `Cc1ccc(SCCCn2cnc3ccccc32)cc1` ?
6.27

Same read-out for `Cc1ccc(Cn2c(C)nc3ccccc32)cc1` ?
6.74

Same read-out for `FC(F)(F)c1cccc(OCCCCn2cnc3ccccc32)c1` ?
5.69

Same read-out for CCn1c(C(C)c2ccc(CC(C)C)cc2)nc2ccccc21 (stereo not shown) ?
5.74

Same read-out for `Cc1nc2ccccc2n1Cc1ccc(Cl)cc1` ?
6.96

Same read-out for `Cc1ccccc1OCCCn1c(C)nc2ccccc21` ?
5.93

Same read-out for `CCCOc1ccc(Cn2cnc3ccccc32)cc1` ?
6.21

Same read-out for `Cc1nc2ccccc2n1Cc1ccccc1Cl` ?
6.25

Same read-out for `Brc1ccccc1OCCCCn1cnc2ccccc21` ?
6.37

Same read-out for `Cc1ccc(SCCCCn2cnc3ccccc32)cc1` ?
5.98

Same read-out for `Nc1nc2ccccc2n1Cc1ccc(Br)cc1` ?
6.47

Same read-out for `Nc1nc2ccccc2n1Cc1ccc(Cl)cc1` ?
6.33

Same read-out for `Clc1ccc(SCCCCn2cnc3ccccc32)cc1` ?
6.02

Same read-out for `Cc1ccc(OCCn2cnc3ccccc32)c(C)c1` ?
5.84

Same read-out for `Cc1nc2ccccc2n1Cc1ccc(F)cc1` ?
6.03

Same read-out for C=CCn1c(C(C)c2ccc(CC(C)C)cc2)nc2ccccc21 (stereo not shown) ?
5.64

Same read-out for `c1ccc(CCCCCCCCCCc2nc3ccccc3[nH]2)cc1` ?
5.63

Same read-out for `Clc1ccc(Cn2cnc3ccccc32)c(Cl)c1` ?
6.35

Same read-out for `Cc1ccccc1OCCCCn1cnc2ccccc21` ?
6.85

Same read-out for `Brc1ccc(Cn2cnc3ccccc32)cc1` ?
6.28

Same read-out for `Cc1nc2ccccc2n1Cc1ccc(Cl)c(Cl)c1` ?
6.33

Same read-out for `Cc1cccc(OCCn2c(C)nc3ccccc32)c1` ?
6.08

Same read-out for Cc1ccc2nc(C(C)c3ccc(CC(C)C)cc3)[nH]c2c1 (stereo not shown) ?
6.04

Same read-out for `c1ccc2[nH]c(CSc3nc4ccccc4o3)nc2c1` ?
4.71

---

Molecular target: C. elegans (N2) complex I (NADH:ubiquinone oxidoreductase) (Caenorhabditis elegans, UniProt P24887+Q93873+Q94360)
Test: biochemical
Assay type: biochemical
Conditions: in vitro complex I dose response on C. elegans mitochondria; average of at least two biological replicates; fit in R (DRC); read-out: IC50 C. elegans complex I
Protocol: Mitochondria were isolated from the following free-living nematode strains: C. elegans—N2, CB3474, ECA882, ECA917, ECA1075, ECA1080; C. briggsae—AF16; P. pacificus—PS312; and P. hermaphrodita—B178. With the exception of the P. hermaphrodita strain B178, adult worms of each strain were grown in bulk through liquid culture to obtain mitochondria in sufficient quantities. […]
Exercise: for every item that follows, state its recorded IC50.
Kindly answer with a numeric value in nM, unit omitted.

What measured IC50 goes with `c1ccc(CCCCCCCCCCc2nc3ccccc3[nH]2)cc1` ?
2330

Same read-out for `Cc1ccc(SCCCCn2cnc3ccccc32)cc1` ?
1040

Same read-out for `Cc1nc2ccccc2n1Cc1ccc(C(C)C)cc1` ?
430

Same read-out for CCn1c(C(C)c2ccc(CC(C)C)cc2)nc2ccccc21 (centres unmarked) ?
1830

Same read-out for CC(C)Cc1ccc(C(C)c2nc3ccccc3n2C(C)C)cc1 (centres unmarked) ?
4200

---

Assay: in vitro
Settings: human, HEK293 viability, dose 6.3 µM; individual replicate (Rep)
parameter_measured: viability
Output should be the measured figure followed by the unit it is expressed in.

What measured viability goes with C=C(C)[C@H]1Cc2c(ccc3c2O[C@@H]2COc4cc(OC)c(OC)cc4[C@@H]2C3=O)O1 [Rotenone, reference compound] ?
30.9%

---

Biological target: B. taurus (heart) complex I (Bos taurus, UniProt P03887+P17694+P42026)
Sequence (P03887 whole entry): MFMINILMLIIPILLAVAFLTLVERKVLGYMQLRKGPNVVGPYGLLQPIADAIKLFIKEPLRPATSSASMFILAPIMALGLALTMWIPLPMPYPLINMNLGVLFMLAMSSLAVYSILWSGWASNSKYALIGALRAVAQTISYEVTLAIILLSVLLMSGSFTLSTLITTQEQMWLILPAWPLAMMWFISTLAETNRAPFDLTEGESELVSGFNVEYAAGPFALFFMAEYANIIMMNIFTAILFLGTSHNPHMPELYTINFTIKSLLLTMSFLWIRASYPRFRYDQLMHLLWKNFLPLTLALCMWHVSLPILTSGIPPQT
Sequence (P17694 34-463): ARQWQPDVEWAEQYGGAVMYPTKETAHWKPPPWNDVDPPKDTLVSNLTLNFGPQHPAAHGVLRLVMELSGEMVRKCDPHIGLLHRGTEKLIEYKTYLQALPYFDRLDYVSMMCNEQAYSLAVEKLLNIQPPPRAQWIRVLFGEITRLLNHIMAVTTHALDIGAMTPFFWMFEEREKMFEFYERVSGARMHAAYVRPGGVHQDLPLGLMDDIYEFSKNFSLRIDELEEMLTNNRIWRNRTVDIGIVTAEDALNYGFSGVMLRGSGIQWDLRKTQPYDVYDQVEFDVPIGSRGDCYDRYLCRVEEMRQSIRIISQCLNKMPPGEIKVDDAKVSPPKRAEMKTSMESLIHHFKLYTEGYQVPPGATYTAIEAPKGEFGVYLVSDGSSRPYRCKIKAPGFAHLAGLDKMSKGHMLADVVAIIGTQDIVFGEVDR
Sequence (P42026 38-216): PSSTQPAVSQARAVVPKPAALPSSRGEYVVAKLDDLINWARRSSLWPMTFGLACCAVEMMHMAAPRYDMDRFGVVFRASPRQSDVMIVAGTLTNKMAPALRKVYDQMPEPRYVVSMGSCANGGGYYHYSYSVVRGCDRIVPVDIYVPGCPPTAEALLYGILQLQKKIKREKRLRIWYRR
Assay: biochemical
Type: biochemical
Settings: B. taurus; dose 0.313 µM; Mean of replicates; read-out: Complex I activity, dose-response data
Exercise: for every item that follows, state its recorded activity at 0.313 µM.
Output should be the measured figure followed by the unit it is expressed in.

Recall the recorded activity at 0.313 µM for CC(C)Cc1ccc(C(C)c2nc3ccccc3n2C)cc1 (stereo not shown) [NPD8790] with B. taurus (heart) complex I (Bos taurus, UniProt P03887+P17694+P42026) and state it.
112%

Same read-out for COc1cc2c(cc1OC)C(/C=C/c1ccc(N(C)C)cc1)=NCC2 [NPD6303] ?
88.2%

Same read-out for COc1cc2c(cc1OC)C(c1ccc(-c3ccc(Cl)c(Cl)c3)o1)=NCC2 [NPD3577] ?
109%

Same read-out for COc1cc2c(cc1OC)C(C(C)c1ccc(CC(C)C)cc1)=NCC2 (stereo not shown) [NPD10504] ?
98%

---

Target: C. elegans (N2) complex I (NADH:ubiquinone oxidoreductase) (Caenorhabditis elegans, UniProt P24887+Q93873+Q94360)
Assay: biochemical
Assay type: biochemical
Conditions: dose 0.0001 µM; wild-type C. elegans; mean of replicates; read-out: in vitro complex I activity relative to solvent control, Mean
parameter_measured: remaining activity at 0.0001 µM (%)
Kindly answer with a numeric value in %, unit omitted.

What measured remaining activity at 0.0001 µM goes with `Cc1ccccc1OCCCCn1cnc2ccccc21` ?
109

Same read-out for COC(=O)Nc1nc2ccc(Sc3ccccc3)cc2[nH]1 [fenbendazole, reference compound] ?
92.7

Same read-out for C=C(C)[C@H]1Cc2c(ccc3c2O[C@@H]2COc4cc(OC)c(OC)cc4[C@@H]2C3=O)O1 [Rotenone, reference compound] ?
95.7

Same read-out for `Cc1nc2ccccc2n1Cc1ccc(Cl)cc1` ?
93.5

Same read-out for CC(C)(C)c1ccc(CCOc2ncnc3ccccc23)cc1 [Fenazaquin, reference compound] ?
94.3

---

Biological target: C. elegans (N2) complex I (NADH:ubiquinone oxidoreductase) (Caenorhabditis elegans, UniProt P24887+Q93873+Q94360)
Assay: biochemical
Format: biochemical
Conditions: Dose 75 µM; read-out: C. elegans mitochondrial complex I activity
Experimental: Mitochondria were isolated from the following free-living nematode strains: C. elegans—N2, CB3474, ECA882, ECA917, ECA1075, ECA1080; C. briggsae—AF16; P. pacificus—PS312; and P. hermaphrodita—B178. With the exception of the P. hermaphrodita strain B178, adult worms of each strain were grown in bulk through liquid culture to obtain mitochondria in sufficient quantities. […]
Exercise: for every item that follows, state its recorded activity at 75 µM.
Kindly answer with a numeric value in %, unit omitted.

What measured activity at 75 µM goes with Clc1ccc(Cn2cnc3ccccc32)c(Cl)c1 [Compound 6750659] ?
5.12

Same read-out for Clc1ccc(Cn2cnc3ccccc32)cc1Cl [Compound 5571325] ?
7.02

Same read-out for Cc1ccc(OCCn2cnc3ccccc32)cc1 [Compound 5671538] ?
13.8

Same read-out for Cc1ccc(SCCCCn2cnc3ccccc32)cc1 [Compound 7925333] ?
7.08

Same read-out for CCc1cc(OCCn2cnc3ccccc32)ccc1Cl [Compound 7925288] ?
2.28

Same read-out for Cc1nc2ccccc2n1CCOc1ccccc1Cl [Compound 5561642] ?
4.41

Same read-out for Nc1nc2ccccc2n1CCOc1ccc(Br)cc1 [Compound 5842535] ?
0

Same read-out for CCCOc1ccc(Cn2cnc3ccccc32)cc1 [Compound 7355741] ?
7.89

Same read-out for Cc1ccccc1OCCCCn1cnc2ccccc21 [Compound 7732524] ?
6.44

Same read-out for Brc1ccccc1OCCCCn1cnc2ccccc21 [Compound 7924576] ?
5.45

---

Exercise: for every item that follows, state its recorded Value relative to DMSO control, drug alone (without KCN), Mean.
System: L1 wild-type C. elegans
Experiment: 15-hour motility assay with drug alone (no KCN)
Format: cell-based, Caenorhabditis elegans
Details: without KCN, 25 µM, 15-hour, mean of replicates
// keep it numeric: no unit symbol after the value

What measured Value relative to DMSO control, drug alone (without KCN), Mean goes with O=C(Nc1cc(Cl)cc(Cl)c1O)c1c(O)c(Cl)cc(Cl)c1Cl [Oxyclozanide] ?
0.843

Same read-out for Cc1cc(C(C#N)c2ccc(Cl)cc2)c(Cl)cc1NC(=O)c1cc(I)cc(I)c1O (stereo not shown) ?
0.703

Same read-out for O=C(Nc1ccc([N+](=O)[O-])cc1Cl)c1cc(Cl)ccc1O [Niclosamide] ?
0.884

Same read-out for O=C(Nc1ccc(Oc2ccc(Cl)cc2)c(Cl)c1)c1cc(I)cc(I)c1O [Rafoxanide] ?
1.108
